Below: a set of entries, each annotated with reported fold difference (KD vs 17H5).
molecular target: T1, human GARP-TGF-β1 complex (recombinant complex of human GARP and latent human TGF-β1) (human, UniProt Q14392 20-627; P01137 30-278; P01137 279-390); assay: SPR, IgG1 on human GARP-TGF-β1 complex
T1 construct: also called huGARP-TGF-β1; hGARP-TGF-β1
T1 sequence (Q14392 20-627 limits assumed, chain 1 of 3): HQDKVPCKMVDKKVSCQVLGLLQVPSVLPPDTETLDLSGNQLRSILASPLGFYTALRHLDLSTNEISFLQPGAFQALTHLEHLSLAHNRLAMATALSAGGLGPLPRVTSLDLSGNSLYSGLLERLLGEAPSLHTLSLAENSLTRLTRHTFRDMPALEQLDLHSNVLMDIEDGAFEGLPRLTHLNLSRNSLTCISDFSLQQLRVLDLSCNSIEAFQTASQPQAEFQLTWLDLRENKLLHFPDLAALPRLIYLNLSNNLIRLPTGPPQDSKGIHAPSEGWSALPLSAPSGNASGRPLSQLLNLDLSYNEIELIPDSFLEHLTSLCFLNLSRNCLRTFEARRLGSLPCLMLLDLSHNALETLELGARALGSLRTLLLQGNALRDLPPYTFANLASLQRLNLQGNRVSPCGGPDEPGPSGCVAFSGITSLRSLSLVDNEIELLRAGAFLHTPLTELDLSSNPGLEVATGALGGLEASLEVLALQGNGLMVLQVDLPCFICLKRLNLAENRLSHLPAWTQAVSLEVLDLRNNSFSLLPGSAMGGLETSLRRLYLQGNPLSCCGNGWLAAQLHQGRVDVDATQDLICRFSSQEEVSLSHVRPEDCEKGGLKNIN
T1 sequence (P01137 30-278 limits assumed, chain 2 of 3): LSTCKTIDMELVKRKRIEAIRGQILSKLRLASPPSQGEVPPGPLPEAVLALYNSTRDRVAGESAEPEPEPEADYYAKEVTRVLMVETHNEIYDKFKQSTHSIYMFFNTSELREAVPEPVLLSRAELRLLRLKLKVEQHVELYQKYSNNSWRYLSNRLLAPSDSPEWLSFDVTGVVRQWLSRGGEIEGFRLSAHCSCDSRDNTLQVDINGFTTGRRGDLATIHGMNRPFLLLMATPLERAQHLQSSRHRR
T1 sequence (P01137 279-390 limits assumed, chain 3 of 3): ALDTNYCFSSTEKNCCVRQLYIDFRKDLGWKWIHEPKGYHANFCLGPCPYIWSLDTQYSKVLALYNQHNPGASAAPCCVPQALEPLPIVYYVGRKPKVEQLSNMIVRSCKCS

>  <binder>
39B10 human IgG1 (antibody, V domains shown, Full human IgG1, made in HEK 293E cells) VH: EVQLVQSGAELKKPGASVKVSCKASGYRFTSYYIDWVRQAPGQGLEWMGRIDPEEGGTKYAQKFQGRVTMTADTSTSTAYMELSSLRSEDTAVYYCARNEWETVVVGDLMYEYEYWGQGTLVTVSS VL: DIQMTQSPSSLSASLGDRVTITCQASQSISSYLAWYQQKPGQAPNILIYGASRLKTGVPSRFSGSGSGTDFTLTISGLEAEDFATYYCQQYASVPVTFGQGTKVEIK

>  <fold difference (KD vs 17H5), fold>
2.6

$$$$
>  <binder>
38F2 human IgG1 (antibody, V domains shown, Full human IgG1, made in HEK 293E cells) VH: QVQLVQPGAELKKPGASVKVSCKASGYRFTSYYIDWVRQAPGQGLEWMGRIDPEDAGTKYAQKFQGRVTFTADTSTSTVYVELSSLRSEDTAVYYCARNEWETVVVGDLTYEYEYWGQGTLVTVSS VL: DIQMTQSPSSLSASVGDRVTITCQASQSISSYLAWYQQKPGKAPNLLIYGASRLKTEVPSRFSGSGSGTDFTLISGLEPEDAGTYYCQQYASVPVTFGQGTKVEIK

>  <fold difference (KD vs 17H5), fold>
4.8

$$$$
>  <binder>
39B6 human IgG1 (antibody, V domains shown, Full human IgG1, made in HEK 293E cells) VH: QVQLVQPGAEVRKPGASVKVSCKASGYRFTSYYIDWVRQAPGQGLEWMGRIDPEDGGTKYAQKFQGRVTMTADTSTSTVYVELSSLRSEDTAVYYCARNEWETVVVGDLMYEYEYWGQGTLVTVSS VL: DIQMTQSPSSLSASVGDRVTITCQASQSISSYLAWYQQKPGQAPKILIYGASRLKTGVPSRFSGSGSGTSFTLTISSLEPEDAATYYCQQYASVPVTFGQGTKVEIK

>  <fold difference (KD vs 17H5), fold>
1.7

$$$$
>  <binder>
39A12 human IgG1 (antibody, V domains shown, Full human IgG1, made in HEK 293E cells; also called 39A12_T) VH: EVQLVQPGAEVKKPGASVKVSCKASGYRFTSYYIDWVRQAPGQGLEWMGRIDPEEGGTKYAQKFQGRVTFTADTSTSTVYVELSSLRSEDTAVYYCARNEWETVVVGDLTYEYEYWGQGTLVTVSS VL: DIQMTQSPSSLSASVGDRVTITCQASQSISSYLAWYQQKPGQAPKILIYGASRLKTGVPSRFSGSGSGTDFTLTISSLQAEDFATYYCQQYASVPVTFGQGTKVEIK

>  <fold difference (KD vs 17H5), fold>
5.1

$$$$
>  <binder>
39A5 human IgG1 (antibody, V domains shown, Full human IgG1, made in HEK 293E cells) VH: QVQLVQPGAELRNPGASVKVSCKASGYRFTSYYIDWVRQAPGQGLEWMGRIDPEDGGTKYAQKFQGRVTFTRDTSTSTVYMELSSLRSEDTAVYYCARNEWETVVVGDLMYEYEYWGQGTLVT VL: DIQMTQSPSSLSASLGDRVTITCQASQSISSYLAWYQQKPGQAPKLLIYGASRLKTGVPSRFSGSGSGTDFTLTISSLQPEDAATYYCQQYASVPVTFGQGTKVEIK

>  <fold difference (KD vs 17H5), fold>
3

$$$$
